Measurement target: TrkC WT (Homo sapiens, UniProt Q16288, S70N)
Sequence (Q16288 32-839 S70N): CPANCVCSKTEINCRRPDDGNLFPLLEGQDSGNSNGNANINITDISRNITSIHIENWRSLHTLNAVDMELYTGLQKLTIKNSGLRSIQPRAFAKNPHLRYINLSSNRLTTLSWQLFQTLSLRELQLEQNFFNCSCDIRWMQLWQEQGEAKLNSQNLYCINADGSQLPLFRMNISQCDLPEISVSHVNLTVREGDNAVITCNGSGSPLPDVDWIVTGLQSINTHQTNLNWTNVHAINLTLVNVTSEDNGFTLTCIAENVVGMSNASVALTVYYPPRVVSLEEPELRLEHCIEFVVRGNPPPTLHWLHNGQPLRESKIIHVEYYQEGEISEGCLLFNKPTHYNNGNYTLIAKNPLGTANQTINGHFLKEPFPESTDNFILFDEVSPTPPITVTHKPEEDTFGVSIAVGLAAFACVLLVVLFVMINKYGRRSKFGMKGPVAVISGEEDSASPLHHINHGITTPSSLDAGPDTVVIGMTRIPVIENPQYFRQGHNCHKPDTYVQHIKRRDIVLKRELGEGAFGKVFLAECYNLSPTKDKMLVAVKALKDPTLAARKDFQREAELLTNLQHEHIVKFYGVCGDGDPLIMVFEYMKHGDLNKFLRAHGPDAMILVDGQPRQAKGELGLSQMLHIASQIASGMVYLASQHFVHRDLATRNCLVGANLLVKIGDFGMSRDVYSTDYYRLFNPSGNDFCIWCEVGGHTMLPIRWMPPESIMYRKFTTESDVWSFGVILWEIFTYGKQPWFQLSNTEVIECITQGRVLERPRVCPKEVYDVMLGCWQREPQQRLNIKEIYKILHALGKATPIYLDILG
Assay method text: Trk enzyme assay ([33P] incorporation into poly-EAY)
Format: biochemical
Test parameters: wild-type TrkC enzyme; 22° C., 60 minutes
Measure: IC50

Here are 4 molecules together with their reported answers.
Smiles repr	Result
O=C(NC1CC1)c1cnn2ccc(N3CCC[C@@H]3c3cncc(F)c3)nc12	< 2.5 nM
O=C1NCCCOc2ncc(F)cc2[C@H]2CCCN2c2ccn3ncc1c3n2	< 2.5 nM
O=C1NCC(F)(F)COc2ncc(F)cc2[C@H]2CCCN2c2ccn3ncc1c3n2	2.7 nM
CC1(O)CN(C(=O)Nc2cnc3ccc(N4CCC[C@@H]4c4cc(F)ccc4F)nn23)C1	< 2.5 nM

Turning to the following molecule.
Returns the measured IC50 for the input molecule. Input: C[C@H]1CNC(=O)c2cnn3ccc(nc23)N2CCC[C@@H]2c2cc(F)cn(c2=O)C1
< 2.5 nM
